# ASSAY OVERVIEW: NCI Yeast Anticancer Drug Screen. Data for the mec2-1 strain (AID 157)
# RECORDED CONDITIONS: S. cerevisiae mec2-1 strain, at 50.0 µM (retest, dose inferred, filed as 5.0), stronger effect = higher value
About 79,000 compounds went through this panel and 15% of them were active in at least one assay; those are over-represented in the sample as a whole.
Overview of reported growth inhibition across a group of compounds:
READOUT: growth inhibition (%)

> print(dat)
                                    compound  value
 1  CC1C(c2ccccc2)SC(=N)N1C (configuration not stated)     46
 2                    O/N=c1/ccn(O)c2ccccc12     98
 3                CCCCCCCCCCCCOCCOCCOCC(N)=O     29
 4  CCS(=O)(=O)Nc1ccc(Nc2c3ccccc3nc3ccccc23)c(OC)c1     96
 5  COC(=O)C1=C(C(=O)OC)CC(n2nnc(C(=O)OC)c2C(=O)OC)=CC1     -1
 6  COc1ccccc1/C=C\C(=O)C1COCN1 (configuration not stated)     28
 7                                CNCC(C)CNC     39
 8  Cc1ccc([N+](=O)[O-])c2c(NCCC[N+](C)(C)[O-])c3ccccc3nc12     64
 9                  OB(O)c1ccccc1C#Cc1ccccc1      1
10                          CS(=O)(=O)O.[Ag]     98
11  CC1(C)C(O)OC(O)C1(C)C (configuration not stated)    -10
12  CCCCCCCCCCCCCCCCCCNc1nc(=O)n(C2CC(OP(=O)(O)OCC3OC(n4cc(F)c(=O)[nH]c4=O)CC3O)C(CO)O2)cc1F (configuration not stated)     91
